# measurement-target: GlcNAc(b1-2)Man(a1-3)[GlcNAc(b1-2)Man(a1-6)]Man(b1-4)GlcNAc(b1-4)[Fuc(a1-6)]GlcNAc
# assay-info: glycan array binding signal (z-score within array); higher = stronger binding
# experimental-parameters: glycan notation: IUPAC condensed, linker removed
This is one part of a sample in which the strongest signals are shown more often than they occur.
Attribute: glycan array binding signal (z-score)

{"binder": "Tectonin 2 (Laccaria bicolor) (protein) MPWKGISGSLSRISAGSVTNVWGVNAANNIYRYTGDDAKPWVQIPGALTDIGAAADGTVWGVNAAGNIYRYVWDSNHWTQIKGALKRISAGSRTNVWGVNAGGAIYRYTGDDANPWVQIPGVLSDIGAGADGTVWGVNAAGEIYRYTGDQGDPNHWVKIPGALSAISAGIKTNVWGVNSANNIYTSTGDDKNPWLGIGGSLVDIGAGTDGVVWGVNAGGGIYRWIRD", "glycan array binding signal (z-score)": 0.258}
{"binder": "NKR-PIC (Mus musculus) (protein) GTGQKPSREKCCVFIQENLNKTTDCSVNLECPQDWLLHRDKCFHVSQVSNTWEEGQADCGRKGATLLLIQDQEELRFLLDSIKEKYNSFWIGLRFTLPDMNWKWINGTTFNSDVLKITGVTENGSCASILGDKVTPESCASDNRWICQKELNHETPSNDSGT", "glycan array binding signal (z-score)": -0.287}
{"binder": "ArathEULS3 TAP (Arabidopsis thaliana) (protein) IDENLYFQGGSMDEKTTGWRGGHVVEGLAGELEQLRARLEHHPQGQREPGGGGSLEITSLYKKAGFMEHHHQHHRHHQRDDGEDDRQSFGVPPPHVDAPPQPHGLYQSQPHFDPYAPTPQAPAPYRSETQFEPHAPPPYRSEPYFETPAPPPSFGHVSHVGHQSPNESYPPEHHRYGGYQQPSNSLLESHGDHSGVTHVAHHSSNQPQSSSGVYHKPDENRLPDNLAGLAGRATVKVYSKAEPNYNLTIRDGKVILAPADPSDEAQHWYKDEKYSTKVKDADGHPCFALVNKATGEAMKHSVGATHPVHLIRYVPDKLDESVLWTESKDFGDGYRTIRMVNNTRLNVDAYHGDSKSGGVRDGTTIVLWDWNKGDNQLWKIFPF", "glycan array binding signal (z-score)": -0.928}
{"binder": "Erv46-EDTA (Saccharomyces cerevisiae), P39727 (protein) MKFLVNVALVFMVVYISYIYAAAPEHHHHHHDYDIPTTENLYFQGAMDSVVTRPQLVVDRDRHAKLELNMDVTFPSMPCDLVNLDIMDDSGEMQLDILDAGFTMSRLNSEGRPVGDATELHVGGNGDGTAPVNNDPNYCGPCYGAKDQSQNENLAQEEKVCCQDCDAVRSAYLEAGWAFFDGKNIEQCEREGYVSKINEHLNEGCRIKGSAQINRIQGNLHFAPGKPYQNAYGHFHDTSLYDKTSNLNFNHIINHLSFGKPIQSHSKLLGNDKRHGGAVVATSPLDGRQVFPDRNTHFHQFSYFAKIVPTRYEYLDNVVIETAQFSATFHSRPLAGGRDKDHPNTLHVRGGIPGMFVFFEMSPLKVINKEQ", "glycan array binding signal (z-score)": 6.37}
{"binder": "Jacalin (Artocarpus integrifolia) (protein) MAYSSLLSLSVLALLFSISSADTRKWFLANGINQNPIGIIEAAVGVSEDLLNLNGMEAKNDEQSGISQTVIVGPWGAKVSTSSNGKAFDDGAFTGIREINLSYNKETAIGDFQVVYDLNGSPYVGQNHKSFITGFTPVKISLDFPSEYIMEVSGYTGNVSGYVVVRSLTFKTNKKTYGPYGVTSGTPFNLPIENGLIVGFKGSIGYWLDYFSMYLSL", "glycan array binding signal (z-score)": 0.257}
{"binder": "GALT1 615 (Arabidopsis thaliana), Q8L7F9 (protein) DPMRGSHHHHHHGMASMTGGQQMGRDLYDDDDKSRLQKPYITAAASVVVTPNTTLPMEWLRITLPDFMKEARNTQEAISGDDIAVVSGLFVEQNVSKEEREPLLTWNRLESLVDNAQSLVNGVDAIKEAGIVWESLVSAVEAKKLVDVNENQTRKGKEELCPQFLSKMNATEADGSSLKLQIPCGLTQGSSITVIGIPDGLVGSFRIDLTGQPLPGEPDPPIIVHYNVRLLGDKSTEDPVIVQNSWTASQDWGAEERCPKFDPDMNKKVDDLDECNKMVGGEINRTSSTSLQSNTSRGVPVAREASKHEKYFPFKQGFLSVATLRVGTEGMQMTVDGKHITSFAFRDTLEPWLVSEIRITGDFRLISILA", "glycan array binding signal (z-score)": 6.45}
{"binder": "CREG (Mus musculus), O88668 (protein) MAARAPELARSLLAALLAPALVALLVSPASGRGGRDHGDWDVDRRLPPLPPREDGPRVARFVTHVSDWGSLATISTIKEVRGWPFADIISISDGPPGEGTGEPYMYLSPLQQAVSDLQENPEATLTMSLAQTVYCRNHGFDPQSPLCVHIMMSGTVTKVNKTEEDYARDSLFVRHPEMKHWPSSHNWFFAKLKISRIWVLDYFGGPKVVTPEEYFNVTLQ", "glycan array binding signal (z-score)": 3.8}
{"binder": "HHA (Hippeastrum hybrid) (protein) MQQDCNLVLYDVDKPIWASNTGGLARDCHLNMQSDGNLVVYAPRNQVIWASNTQGENGNYVCILQKDRNVVIYGTARWATGTNIHGAGIVGVPGSAPQNTTAEMIKLVRKYLITK", "glycan array binding signal (z-score)": -0.168}
{"binder": "CSA (Cytisus scoparius), P29257 (protein) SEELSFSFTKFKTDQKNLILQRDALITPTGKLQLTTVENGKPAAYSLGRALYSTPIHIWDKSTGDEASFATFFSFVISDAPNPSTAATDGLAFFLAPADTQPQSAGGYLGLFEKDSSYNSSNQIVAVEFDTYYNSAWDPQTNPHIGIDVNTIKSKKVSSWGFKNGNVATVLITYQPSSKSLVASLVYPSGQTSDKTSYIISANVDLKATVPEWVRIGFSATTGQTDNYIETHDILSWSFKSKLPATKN", "glycan array binding signal (z-score)": -0.139}
